System: Ostrinia nubilalis Hubner
Assay: Activity of killing Ostrinia nubilalis Hubner (leaf soaking method)
Format: in vivo
Details: 600 ppm (table); 3rd instar larvae; corn leaf dipping; 72 hours
Please provide measured Mortality for the entries that follow.
Provide only the numeric value, understood in %.

If you can, please state the reported Mortality value of CCCC1CC(=O)C(C(=O)Nc2ccccc2)=C(Nc2ccccc2)C1 (stereo not shown) .
30

Try the molecule CCC1CC(=O)C(C(=O)Nc2ccccc2)=C(Nc2ccccc2)C1 (stereo not shown)
100

Try the molecule CC1(C)CC(=O)C(C(=O)Nc2ccccc2)=C(Nc2ccccc2)C1
15

Try the molecule CC1CC(=O)C(C(=O)Nc2ccccc2)=C(Nc2ccccc2)C1 (stereo not shown)
20

###

Please provide measured Mortality for the entries that follow.
System: Helicoverpa armigera
Experiment: Activity of killing Helicoverpa armigera (leaf soaking method)
Assay type: in vivo
Conditions: 600 ppm; third-instar larvae; corn leaf soaking; 72 hours
Provide only the numeric value, understood in %.

If you can, please state the reported Mortality value of CC1CC(=O)C(C(=O)Nc2ccccc2)=C(Nc2ccccc2)C1 (stereo not shown) [compound 3b] .
15

Try the molecule CCCC1CC(=O)C(C(=O)Nc2ccccc2)=C(Nc2ccccc2)C1 (stereo not shown) [compound 3e]
25

Try the molecule CCC1CC(=O)C(C(=O)Nc2ccccc2)=C(Nc2ccccc2)C1 (stereo not shown) [compound 3d]
100

Try the molecule CC1(C)CC(=O)C(C(=O)Nc2ccccc2)=C(Nc2ccccc2)C1 [compound 3c]
10

###

System: Culex pipiens pallens
Experiment: Activity of killing Culex pipiens pallens larvae
Assay type: in vivo
Details: 10 ppm; 4th instar mosquito larvae in water; 24 h
measuredParameter: Mortality

If you can, please state the reported Mortality value of CCCC1CC(=O)C(C(=O)Nc2ccccc2)=C(Nc2ccccc2)C1 (stereo not shown) [compound 3e] .
100%

Try the molecule CC1(C)CC(=O)C(C(=O)Nc2ccccc2)=C(Nc2ccccc2)C1 [compound 3c]
80%

Try the molecule CCC1CC(=O)C(C(=O)Nc2ccccc2)=C(Nc2ccccc2)C1 (stereo not shown) [compound 3d]
20%

Try the molecule CC1CC(=O)C(C(=O)Nc2ccccc2)=C(Nc2ccccc2)C1 (stereo not shown) [compound 3b]
70%
